Tested on: Schistosoma mansoni schistosomula (NMRI)
PROTOCOL_DETAILS: phenotypic severity score (0-4); higher = more antischistosomal effect, active = 2 or more
CONDITION_NOTES: 72 h; 10 µM
Outcome (select one): T = active, F = inactive

Study these solved cases before continuing.
| MOLECULE | GROUP |
| --- | --- |
| O=C(Nc1ccc2c(c1)B(O)OC2)c1ccccc1C(F)(F)F | F |
| O=C(Nc1ccccc1)c1ccc(-c2cc3ccncc3cc2OC2CCNCC2)s1 | F |
| CCCCOC(=O)Nc1cc2nc(C3CCCCC3)[nH]c2cc1N1CCCC1 | T |
| Cc1cc(NCC(C)C)c2n[nH]c(-c3ccccc3)c2n1 | F |

Incoming: For Cc1cc(NC(=O)c2ccc(S(=O)(=O)N(Cc3ccccc3)C(C)C)cc2)no1 , what call appears in the results of this test?
Outgoing: F

Incoming: For O=C(c1ccco1)N(CCCn1ccnc1)c1nc2c(Cl)cccc2s1 , what call appears in the results of this test?
Outgoing: F

Incoming: Tell me the recorded outcome of this test for Nc1ncc(Br)cc1-c1nc2cc(Cl)cnc2[nH]1 .
Outgoing: F

Incoming: // param item: O=C(Nc1cnc2ccccc2c1)c1cccc(-n2cnnn2)c1 ; yields the recorded call
Outgoing: F

Incoming: Assay result, entry CCCn1c(NC(=O)c2ccc3ccccc3n2)nc2ccccc21 — outcome?
Outgoing: F

Incoming: What was the test verdict on COC(=O)c1c(NC(=O)c2c(F)c(F)c(F)c(F)c2F)sc2c1CCCCC2 ?
Outgoing: T

Incoming: Check the results log: what was the call for Cc1nn(C)cc1C(C)Nc1nncc(-c2ccc(C(F)(F)F)cc2)n1 (stereo not given) ?
Outgoing: F

Incoming: Please state the recorded outcome for this molecule: Cc1cc(Nc2ccc(C(F)(F)F)cc2)n2ccnc2n1
Outgoing: F

Incoming: Please state the recorded outcome for this molecule: FC(F)(F)c1cc(NCCc2ccccc2)nc(-c2ccccn2)n1
Outgoing: T

Incoming: Per the records of this test, what outcome belongs to Cc1[nH]c2cc(F)cc(F)c2c(=O)c1-c1ccc(Oc2ccc(OC(F)(F)F)cc2)cc1 ?
Outgoing: T

Incoming: State the result this test recorded for CCOC(=O)c1cc(-c2csc(Nc3c(C)cc(C)cc3C)n2)on1 .
Outgoing: F

----------
Consider the following molecules and their measured drug effect readings.
Tested on: Schistosoma mansoni schistosomula (Liberian)
PROTOCOL_DETAILS: drug effect (1 - score/DMSO control score) (fraction); higher = more antischistosomal effect, active = 0.5 or more; extreme values may be limits of the assay
CONDITION_NOTES: 48 h; 10 µM
// return a plain number; no unit text

Solved entries:
| MOLECULE | drug effect |
| --- | --- |
| CC1=Nc2ccc(Cl)cc2C(O)(c2ccc(C)cc2)N1CCN1CCCCC1 (stereo unspecified) | 0.188 |
| COc1cc(C2=NCCN2)cc2cc(-c3ccc(C4=NCCN4)cc3)oc12 | 0.027 |
| c1ccc(Oc2ccc(-c3cc(N4CCOCC4)[nH]n3)cc2)cc1 | 0.297 |
| COC(=O)C1=C(C)NC(C)=C(C(=O)OC(C)C)C1c1cccc2nonc12 (stereo unspecified) | 0.189 |
| CCc1ccc([C@@H]2C[C@H](C(F)(F)F)n3ncc(C(=O)NCc4ccc(OC)cc4)c3N2)cc1 | 0.111 |

Incoming: Which drug effect reading was recorded for the molecule c1ccc2c(c1)CN(CC1CC1)CC1(CCN(Cc3c[nH]c4cnccc34)CC1)O2 ?
Outgoing: 0.1

----------
Tested on: Schistosoma mansoni schistosomula (Liberian)
PROTOCOL_DETAILS: drug effect (1 - score/DMSO control score) (fraction); higher = more antischistosomal effect, active = 0.5 or more; extreme values may be limits of the assay
CONDITION_NOTES: 24 h; 10 µM
Parameter: drug effect. Scope: all listed entries.
Answer field: number only, no words.

The examples below pair each entry with its known result.
| MOLECULE | REPORTED |
| --- | --- |
| Cc1noc(C)c1C(=O)N1CCCC(c2[nH]c3c(C)cccc3c2-c2ccncc2)C1 (stereo not given) | 0.35 |
| Cc1ccc2nc(Cl)c(CNCc3cccs3)cc2c1 | 0.182 |
| CCCCOC(=O)Nc1cc2nc(C3CCCCC3)[nH]c2cc1N1CCCC1 | 0.15 |
| CCOC(=O)c1c(NC(=O)c2c(F)c(F)c(F)c(F)c2F)sc(C(N)=O)c1C | 1 |

Incoming: Which drug effect is reported with Schistosoma mansoni schistosomula (Liberian) for this entry: COc1ccc(Cl)cc1NC(=O)CN(C)C(=O)c1cnn(-c2ccccc2)n1 ?
Outgoing: 0.2

Incoming: drug effect of Cc1cc(C)cc(COc2ccc3c(C)c(CCC(=O)O)c(=O)oc3c2C)c1 on Schistosoma mansoni schistosomula (Liberian)?
Outgoing: 0.136

Incoming: Record Cc1nn2c(O)c3c(nc2c1-c1ccc(F)cc1)CCCC3 : what is its drug effect with Schistosoma mansoni schistosomula (Liberian)?
Outgoing: 0.409

Incoming: What is its drug effect for Schistosoma mansoni schistosomula (Liberian)? Entry: CS(=O)(=O)c1ccccc1C(=O)N(Cc1ccccc1)c1ccccc1
Outgoing: 0.182

Incoming: Hi! What's the reported drug effect for CC(C)=CCC/C(C)=C\CNCCNC1C2CC3CC(C2)CC1C3 (stereo not given) on Schistosoma mansoni schistosomula (Liberian)?
Outgoing: 1

Incoming: Please provide the recorded drug effect for CNC1C(OC2C(OC3C(O)C(O)C(NC(=N)N)C(O)C3NC(=N)N)OC(C)C2(O)C=O)OC(CO)C(O)C1O (stereo not given) , tested on Schistosoma mansoni schistosomula (Liberian).
Outgoing: 0.182

----------
Test system: Schistosoma mansoni schistosomula (NMRI)
PROTOCOL_DETAILS: phenotypic severity score (0-4); higher = more antischistosomal effect, active = 2 or more
CONDITION_NOTES: 24 h; 10 µM
PROPERTY_NAME: phenotypic severity score
Give the figure by itself; no unit, no explanation.

Take a look at these entries with their results.
| COMPOUND | TESTED_SYSTEM | phenotypic severity score |
| --- | --- | --- |
| Clc1cccc(C(c2ccc(CN3CCNCC3)cc2)n2ccnc2)c1 (stereo not given) | Schistosoma mansoni schistosomula (NMRI) | 1 |
| COc1ccc2nc(C)cc(OCC(=O)Nc3ccccc3OC)c2c1 | Schistosoma mansoni schistosomula (NMRI) | 0 |

Incoming: Which measured phenotypic severity score value corresponds to COc1ccc(C2=NN(C3CCCCCC3)C(=O)C2(C)C)cc1OCCCCOc1ccc(-c2nn[nH]n2)cc1 ?
Outgoing: 1

Incoming: Which value of phenotypic severity score has been reported for O=C(CCC1CCCCC1)Nc1cccc(-c2nnc(-c3ccco3)o2)c1 in the records?
Outgoing: 2

Incoming: What value of phenotypic severity score has been recorded for this entry: Cc1cnc(CCNC(=O)c2cc(-c3ccc(Cl)cc3)cs2)[nH]1
Outgoing: 1

Incoming: # input compound: CCc1ccc(C(NCc2nc(N)nc(N(C)C)n2)C(C)C)cc1 (stereo not given) ; wanted: its phenotypic severity score
Outgoing: 0

Incoming: Entry under review: O=S(=O)(c1ccc(Cl)cc1)N1CCN(C(=S)NCc2ccco2)CC1 . Reported phenotypic severity score?
Outgoing: 1

Incoming: What does the record list as phenotypic severity score for COc1ccc(Cl)cc1NC(=O)CN(C)C(=O)c1cnn(-c2ccccc2)n1 ?
Outgoing: 0

Incoming: Could you tell me which phenotypic severity score is on file for CC(C)(C)n1nc(Cc2cccc3ccccc23)c2c(N)ncnc21 ?
Outgoing: 0

Incoming: Data request, read-out phenotypic severity score, for CC1CC1C(=O)NC1CCN(CC2(c3ccccc3)CCCCC2)CC1 (stereo not given)
Outgoing: 1

Incoming: Which phenotypic severity score is reported for this compound? O=C(Nc1nnc(-c2ccc(Cl)s2)o1)c1ccc(Cl)s1
Outgoing: 2

Incoming: Can you share its phenotypic severity score? I mean this compound: Oc1c(I)cc(I)c2cccnc12
Outgoing: 2

Incoming: For the compound CCOC(=O)c1c(NC(=O)c2c(F)c(F)c(F)c(F)c2F)sc(C(N)=O)c1C , what phenotypic severity score is on record?
Outgoing: 4

----------
Tested on: Schistosoma mansoni schistosomula (Liberian)
PROTOCOL_DETAILS: drug effect (1 - score/DMSO control score) (fraction); higher = more antischistosomal effect, active = 0.5 or more; extreme values may be limits of the assay
CONDITION_NOTES: 72 h; 10 µM
// classify into active, inactive

Observe how each entry below is paired with its result.
| ITEM_SMILES | GROUP |
| --- | --- |
| CC(C)(C)c1cc(C(=O)N2CCN(c3nccnc3C#N)CC2)n(Cc2ccccc2)n1 | inactive |
| CCN(CC)S(=O)(=O)c1ccc(C(=O)Nc2cc(C)nn2-c2nc(C)c(C)c(=O)[nH]2)cc1 | inactive |

Incoming: Would you mind telling me which call this test gave O=C(NCCN1CCCC1)c1cc(NCCCCN2CCC(F)(F)CC2)nc2ccc(Cl)cc12 ?
Outgoing: active
